# key: entry, value: cytotoxicity at 10 µM
assay: Toxicity liver stage against HepG2, at 10uM; assay type: cell-based; parameters: test concentration 10 uM, cell line HepG2-A16-CD81EGFP; settings: human, HepG2-A16-CD81EGFP cells; read-out: INHIBITION
recorded_endpoint: cytotoxicity at 10 µM (%)

[
  {
    "compound": "NC(=O)c1sc2ccccc2c1C1CCN(S(=O)(=O)N2CCOCC2)C1 (centres undefined)",
    "unit_symbol": "%",
    "numeric_readout": 11.8
  },
  {
    "compound": "CSc1ccc(NCC(=O)NC(=O)NCC(F)(F)F)cc1F",
    "unit_symbol": "%",
    "numeric_readout": -7.91
  },
  {
    "compound": "CCOc1cc(C)nc(N2CCN(C(=O)c3cc[nH]n3)CC2)n1",
    "unit_symbol": "%",
    "numeric_readout": -8.21
  },
  {
    "compound": "COCc1ccc(C(=O)N2CCC(Oc3ccccc3OC)CC2)s1",
    "unit_symbol": "%",
    "numeric_readout": 5.79
  },
  {
    "compound": "CCNC(=O)[C@@H]1CCCN1C1(C(=O)NC)CCCCC1",
    "unit_symbol": "%",
    "numeric_readout": 5.09
  },
  {
    "compound": "Cc1cc(C(=O)N2C[C@@H]3OCCN(CCN4CCCC4)[C@@H]3C2)c(C)o1",
    "unit_symbol": "%",
    "numeric_readout": -74.8
  },
  {
    "compound": "OC1CCN(c2ccccc2NCc2nc(-c3ccoc3)no2)CC1",
    "unit_symbol": "%",
    "numeric_readout": 14.5
  },
  {
    "compound": "CCn1ccnc1CN1CCN(Cc2cccc(C#N)c2)CC1",
    "unit_symbol": "%",
    "numeric_readout": -22.3
  },
  {
    "compound": "c1cncc(CN2CC[C@H]3O[C@@H](COCC4CCOCC4)CC[C@H]32)c1",
    "unit_symbol": "%",
    "numeric_readout": -73.5
  },
  {
    "compound": "Cc1cccc(CN2C[C@@H]3CN(C(=O)NC(C)C)C[C@@H]3C2=O)n1",
    "unit_symbol": "%",
    "numeric_readout": 2.91
  },
  {
    "compound": "Cc1c(NCC(C)(C)C)cccc1C(=O)N(C)Cc1ncnn1C",
    "unit_symbol": "%",
    "numeric_readout": 22.5
  },
  {
    "compound": "Cc1nn2c(NC(=O)CSc3ncccn3)csc2nc1=O",
    "unit_symbol": "%",
    "numeric_readout": 2.74
  },
  {
    "compound": "CCNC(=O)c1ccc(CNCc2c(C)nn(C)c2N(C)C)cc1",
    "unit_symbol": "%",
    "numeric_readout": 1.71
  },
  {
    "compound": "Cc1ccc(OCc2occc2C(=O)N2CCOC(C(=O)O)C2)cc1 (centres undefined)",
    "unit_symbol": "%",
    "numeric_readout": -2.14
  },
  {
    "compound": "O=C(Nc1cnc2n1CCCC2)C1CCCN1C1CCNCC1 (centres undefined)",
    "unit_symbol": "%",
    "numeric_readout": 11.6
  },
  {
    "compound": "O=C(Nc1cccnc1-n1cncn1)N(C1CCCC1)C1CC1",
    "unit_symbol": "%",
    "numeric_readout": -10.9
  },
  {
    "compound": "CC1=Nc2c(c(=O)[nH]n2C(C)C)C(c2ccccc2)S1 (centres undefined)",
    "unit_symbol": "%",
    "numeric_readout": 5.53
  },
  {
    "compound": "CC(C)CC(NC(=O)c1ccco1)c1nc2cccnc2n1C (centres undefined)",
    "unit_symbol": "%",
    "numeric_readout": 6.08
  },
  {
    "compound": "CC(C)c1cc(C2CCCN2C(=O)c2cn3ccsc3n2)no1 (centres undefined)",
    "unit_symbol": "%",
    "numeric_readout": -2.33
  },
  {
    "compound": "COCCNC(=O)NC1CCN(c2cnn(C)c2)C1 (centres undefined)",
    "unit_symbol": "%",
    "numeric_readout": 6
  },
  {
    "compound": "Cc1cc(-c2nnn(CCNS(C)(=O)=O)n2)ccc1F",
    "unit_symbol": "%",
    "numeric_readout": -9.09
  },
  {
    "compound": "Cc1nccc(N2C[C@@H](CN3CCCC3)[C@@H](CO)C2)n1",
    "unit_symbol": "%",
    "numeric_readout": -3
  },
  {
    "compound": "CN(Cc1cccc(F)c1)C(=O)CN1CCOC(Cn2cccn2)C1 (centres undefined)",
    "unit_symbol": "%",
    "numeric_readout": -8.21
  },
  {
    "compound": "CN1CCN(CC2CC2)C(=O)c2cnc(N3CCCCC3)nc21",
    "unit_symbol": "%",
    "numeric_readout": 4.84
  }
]
